Target: T1, ECF17_1691
T1 chain: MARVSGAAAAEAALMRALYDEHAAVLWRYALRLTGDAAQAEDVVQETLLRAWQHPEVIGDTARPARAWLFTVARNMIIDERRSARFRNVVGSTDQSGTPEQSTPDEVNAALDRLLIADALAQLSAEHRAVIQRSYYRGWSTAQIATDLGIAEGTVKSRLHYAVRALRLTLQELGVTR
measured quantity: fold repression
Give the figure by itself; no unit, no explanation.

Prompt: Annotate the binder AS33_423 (protein) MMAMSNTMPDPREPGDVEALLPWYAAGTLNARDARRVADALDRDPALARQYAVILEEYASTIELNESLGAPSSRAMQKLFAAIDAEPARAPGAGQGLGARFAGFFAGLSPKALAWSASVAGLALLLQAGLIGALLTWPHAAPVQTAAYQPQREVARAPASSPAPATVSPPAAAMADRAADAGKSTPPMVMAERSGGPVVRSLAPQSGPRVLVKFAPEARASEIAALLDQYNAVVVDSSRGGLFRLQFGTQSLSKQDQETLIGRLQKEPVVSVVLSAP with its measured fold repression.
Response: 3.16
